# Measurement Target: Alpha-1A adrenergic receptor (Oryctolagus cuniculus, UniProt O02824)
# Sequence (O02824 whole entry): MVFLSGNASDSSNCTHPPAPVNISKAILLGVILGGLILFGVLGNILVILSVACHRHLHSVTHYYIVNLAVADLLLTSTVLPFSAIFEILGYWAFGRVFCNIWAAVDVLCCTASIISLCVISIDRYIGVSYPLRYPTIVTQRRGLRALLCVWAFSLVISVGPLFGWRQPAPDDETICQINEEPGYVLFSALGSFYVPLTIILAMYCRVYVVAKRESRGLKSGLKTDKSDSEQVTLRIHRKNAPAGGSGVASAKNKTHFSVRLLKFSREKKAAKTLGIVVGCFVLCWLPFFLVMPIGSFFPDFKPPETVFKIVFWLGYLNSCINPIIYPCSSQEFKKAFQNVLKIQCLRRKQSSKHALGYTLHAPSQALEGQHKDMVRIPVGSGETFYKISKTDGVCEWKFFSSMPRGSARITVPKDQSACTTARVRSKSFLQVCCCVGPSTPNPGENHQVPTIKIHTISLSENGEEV
Each record here notes measured pKi.
Reminder that pKi means the negative base-10 logarithm of the concentration expressed in mol/L.

{"columns": ["Compound", "Measurement Target", "pKi"],
 "data": [
  ["CN1CCc2cccc(Cl)c2CC1 [MLS002172470]", "Alpha-1A adrenergic receptor (Oryctolagus cuniculus, UniProt O02824)", 6.05]
]}

Please look at the following compound next.
**Query** Please look at c1ccc2c(c1)OCC(C1=NCCN1)O2 (configuration not stated) and tell me its recorded pKi on Alpha-1A adrenergic receptor (Oryctolagus cuniculus, UniProt O02824).
**Result** 5.64
